Where these numbers come from: paper PMC7179450

- TEST_NAME: Cytotoxicity battery in fibroblasts
- Format: cell-based
- REPORTED_CONDITIONS: mouse, Balb/c 3T3 fibroblasts, inhibiting lysosomal and mitochondrial activity and synthesis of cellular proteins, read-out: cytotoxic concentrations
READOUT_NAME: EC50

Data request: Consider the compound "CC[C@@H](C(=O)[C@@H](C)[C@@H](O)[C@H](C)[C@@H]1O[C@@H]([C@@H](CC)C(=O)O)CC[C@@H]1C)[C@H]1O[C@]2(C=C[C@@H](O)[C@]3(CC[C@@](C)([C@H]4CC[C@](O)(CC)[C@H](C)O4)O3)O2)[C@H](C)C[C@@H]1C" and give its measured EC50.
Data returned: 0.6 to 10 µg/mL
